Test system: DU-145
test details: Antiproliferative activity against human DU-145 cells assessed as reduction in cell viability measured after 48 hrs by MTT assay
Format: functional, cell-based
run parameters: DU-145, 48 h
measured quantity: IC50

- CN(C)c1ccc(-c2nc(-c3ccc(-c4nc(-c5nnc(-c6ccncc6)o5)c[nH]4)cc3)no2)cc1: 2490 nM
- COc1cc(OC)cc(-c2nc(-c3ccc(-c4nc(-c5nnc(-c6ccncc6)o5)c[nH]4)cc3)no2)c1: 880 nM
- Brc1ccc(-c2nc(-c3ccc(-c4nc(-c5nnc(-c6ccncc6)o5)c[nH]4)cc3)no2)cc1: 4250 nM
- COc1ccc(-c2nc(-c3ccc(-c4nc(-c5nnc(-c6ccncc6)o5)c[nH]4)cc3)no2)cc1: 1740 nM
- Cc1ccc(-c2nc(-c3ccc(-c4nc(-c5nnc(-c6ccncc6)o5)c[nH]4)cc3)no2)cc1: 2340 nM
- O=[N+]([O-])c1ccc(-c2nc(-c3ccc(-c4nc(-c5nnc(-c6ccncc6)o5)c[nH]4)cc3)no2)cc1: 3810 nM
- COc1cc(-c2nc(-c3ccc(-c4nc(-c5nnc(-c6ccncc6)o5)c[nH]4)cc3)no2)cc(OC)c1OC: 430 nM

--- query ---
Query COc1cc([C@@H]2c3cc4c(cc3[C@@H](O[C@@H]3O[C@@H]5CO[C@@H](C)O[C@H]5[C@H](O)[C@H]3O)[C@H]3COC(=O)[C@H]23)OCO4)cc(OC)c1O [ETOPOSIDE] yields IC50 of 1970 nM
